These data points were gathered from paper PMC7998250.

# experiment-summary: in vitro
# test-context: human, pH 7, HepG2 CC50

molecule	display-unit	comparison-sign	CC50 at 48 h
C/C=C(\C)C(=O)OC1C(C)OC(Oc2c(C(C)C)ccc(C)c2O)C(O)C1OC1OC(C)C(OC(=O)C(C)CC)C(O)C1O (stereo not drawn)	µM	=	16
CC1(C)OC2CC(=O)C=CC2(c2cc(=O)c3c(O)cc(O)cc3o2)O1 (stereo not drawn)	µM	<	10
CC(=O)OC1C(COC(=O)/C=C/c2ccc(O)cc2)OC(Oc2c(-c3ccc(O)cc3)oc3cc(O)cc(O)c3c2=O)C(OC(=O)/C=C/c2ccc(O)cc2)C1O (stereo not drawn)	µM	=	54
COc1cc2ccc(=O)oc2c(OC)c1OCC1C(C)=CCC2C(C)(C)C(O)CCC12C (stereo not drawn)	µM	=	27
CC1=CC(O)(CC(C)C2(C)CC=C3C4=CCC5C(C)(C)C(=O)CCC5(C)C4CCC32C)OC1=O (stereo not drawn)	µM	=	28
CC(C)c1ccc2c(c1)CCC1C(C)(C=O)CCCC21C (stereo not drawn)	µM	=	40
CC#CC#CCc1cccc(O)c1	µM	=	0.67
CC(=O)OC1C(COC(=O)/C=C/c2ccc(O)cc2)OC(Oc2c(-c3ccc(O)cc3)oc3cc(O)cc(O)c3c2=O)C(OC(=O)/C=C/c2ccc(O)cc2)C1OC(C)=O (stereo not drawn)	µM	=	4.6
C/C(=C\C(=O)O)C(O)CC12CCCCC1C(C)(C(=O)OC(O)O)CCC2 (stereo not drawn)	µM	>	100
O=C1C=CC(O)(c2cc(=O)c3c(O)cc(O)cc3o2)C=C1	µM	=	3.6
CC1=CC(O)(CC(C)C2(C)CC=C3C4=CCC5C(C)(C)C(O)CCC5(C)C4CCC32C)OC1=O (stereo not drawn)	µM	=	28
CC1=CC(O)(CC(C)C2(C)CCC3C4=CCC5C(C)(CCC(O)C5(C)C)C4=CCC32C)OC1=O (stereo not drawn)	µM	=	45
COC(=O)C1=COC(O)C2C1CC(OC(=O)/C=C/c1ccc(O)cc1)C2C (stereo not drawn)	µM	=	27.8
C/C(=C/C(=O)CC(C)C1CCC2(C)C3=CCC4C(C)(C)C(=O)CCC4(C)C3CCC12C)C(=O)O (stereo not drawn)	µM	=	47
COc1ccc(CC2COC(=O)C2Cc2ccc(OC)c(O)c2O)cc1OC (stereo not drawn)	µM	>	100

---

# Test system: L. mexicana axenic amastigotes
# experiment-summary: Concentration-response EC50, L. mexicana axenic amastigotes (WT)
# Format: cell-based, Leishmania mexicana
# test-context: Leishmania mexicana, 72 h, read-out: L. mexicana EC50, axenic amastigotes, 72 h
pEC50: −log10 of the molar value.
Each item that follows carries a reported pEC50.
experimental-readout: pEC50

compound	number
CC#CC#CC(=O)c1cccc(OC)c1C(=O)OC	6.48
C=C1C(=O)OC2CC(C)C3C=CC(=O)C3(C)C(OC(=O)C(C)CC)C12 (stereo not drawn)	6.62
C=C1C(=O)OC2CC(C)C3C=CC(=O)C3(C)C(OC(=O)C(C)C)C12 (stereo not drawn)	6.70

---

# Test system: T. evansi
# experiment-summary: Concentration-response EC50, T. evansi
# Format: cell-based
# test-context: Trypanosoma evansi; bloodstream form, 48 h; read-out: T. evansi EC50
experimental-readout: EC50 (µM)

compound	comparison-sign	number
CC(C)c1cc(CCC2C(=O)CCCC2(C)C)c(O)cc1O (stereo not shown)	=	3.3
CC1=CC(CC(C)C2CCC3(C)C4=CCC5C(C)(C)C(=O)CCC5(C)C4CCC23C)OC1=O (stereo not shown)	>	3
CC(=O)OC1C(COC(=O)/C=C/c2ccc(O)cc2)OC(Oc2c(-c3ccc(O)cc3)oc3cc(O)cc(O)c3c2=O)C(OC(=O)/C=C/c2ccc(O)cc2)C1O (stereo not shown)	=	0.816
COc1ccc(CC2COC(=O)C2Cc2ccc(OC)c(O)c2O)cc1OC (stereo not shown)	=	0.451
CC(C)=CCc1c(O)cc2oc(-c3ccc(O)c(O)c3)c(O)c(=O)c2c1O	=	1.8
C/C=C(\C)C(=O)OC1C(C)OC(Oc2c(C(C)C)ccc(C)c2O)C(O)C1OC1OC(C)C(OC(=O)C(C)CC)C(O)C1O (stereo not shown)	=	0.357
C/C(=C\C(=O)O)C(O)CC12CCCCC1C(C)(C(=O)OC(O)O)CCC2 (stereo not shown)	=	0.756

---

# Tested on: 700022-resistant line of L. mexicana (r22) axenic amastigotes
# experiment-summary: EC50 in 700022-resistant L. mexicana (r22) axenic amastigotes
# Type: cell-based, Leishmania mexicana
# test-context: Leishmania mexicana, read-out: r22 8 weeks EC50, r22 after 8 weeks of 700022 selection pressure

compound	assay-system	EC50 (nM)
CC1=CC(O)(CC(C)C2(C)CC=C3C4=CCC5C(C)(C)C(=O)CCC5(C)C4CCC32C)OC1=O (stereo not shown)	700022-resistant line of L. mexicana (r22) axenic amastigotes	1100
CC1=CC(O)(CC(C)C2(C)CCC3C4=CCC5C(C)(CCC(O)C5(C)C)C4=CCC32C)OC1=O (stereo not shown)	700022-resistant line of L. mexicana (r22) axenic amastigotes	1100
C/C(=C/C(=O)CC(C)C1CCC2(C)C3=CCC4C(C)(C)C(=O)CCC4(C)C3CCC12C)C(=O)O (stereo not shown)	700022-resistant line of L. mexicana (r22) axenic amastigotes	2700
CC1=CC(O)(CC(C)C2(C)CC=C3C4=CCC5C(C)(C)C(O)CCC5(C)C4CCC32C)OC1=O (stereo not shown)	700022-resistant line of L. mexicana (r22) axenic amastigotes	1000

---

# System: 700022-resistant line of L. mexicana (r22) axenic amastigotes
# experiment-summary: EC50 in 700022-resistant L. mexicana (r22) axenic amastigotes
# Format: cell-based, Leishmania mexicana
# test-context: 8 weeks of 700022 selection pressure
experimental-readout: r22 8 weeks RI (resistance index, EC50 in r22/EC50 in WT)

compound	number
CC1=CC(O)(CC(C)C2(C)CCC3C4=CCC5C(C)(CCC(O)C5(C)C)C4=CCC32C)OC1=O (stereo not shown)	4.1
CC1=CC(O)(CC(C)C2(C)CC=C3C4=CCC5C(C)(C)C(O)CCC5(C)C4CCC32C)OC1=O (stereo not shown)	4.1
CC1=CC(O)(CC(C)C2(C)CC=C3C4=CCC5C(C)(C)C(=O)CCC5(C)C4CCC32C)OC1=O (stereo not shown)	5.3
C/C(=C/C(=O)CC(C)C1CCC2(C)C3=CCC4C(C)(C)C(=O)CCC4(C)C3CCC12C)C(=O)O (stereo not shown)	5.3

---

# experiment-summary: Cytotoxicity CC50, differentiated THP-1, Alamar Blue
# Format: cell-based, human
# test-context: human, differentiated THP-1, 48 h; read-out: THP1 CC50
experimental-readout: CC50 at 48 h (µM)

compound	display-unit	number
C=C1C(=O)OC2CC(C)C3C(OC)CC(=O)C3(C)C(OC(=O)C(C)CC)C12 (stereo not drawn) [Compound 701159]	µM	1.42
C=C1C(=O)OC2CC(C)C3C=CC(=O)C3(C)C(OC(=O)C(C)C)C12 (stereo not drawn) [Compound 701157]	µM	0.73
C=C1C(=O)OC2CC(C)C3C=CC(=O)C3(C)C(OC(=O)C(C)CC)C12 (stereo not drawn) [Compound 701158]	µM	0.29

---

# experiment-summary: Cytotoxicity CC50, differentiated THP-1, Alamar Blue
# Format: cell-based, human
# test-context: human, THP-1 cells differentiated into macrophages with PMA, differentiated THP-1, 48 h; read-out: THP1 CC50
YES if CC50 at 48 h is below 2 µM. NO if not; exact matches included in NO.

compound	label-value
C=C1C(=O)OC2/C=C(/C)CC/C=C(/C)CC(OC(=O)/C(C)=C\CO)C12 (centres unmarked) [Compound 700756]	NO
CC#CC#CC(=O)c1cccc(OC)c1C(=O)OC [Compound 701044]	NO
C=C(CC)C(=O)OC1CC(=C)C2CC(O)C(=C)C2C2OC(=O)C(=C)C12 (centres unmarked) [Compound 701212]	YES
C/C(=C/C(=O)CC(C)C1CCC2(C)C3=CCC4C(C)(C)C(=O)CCC4(C)C3CCC12C)C(=O)O (centres unmarked) [Compound 700240]	NO
CC#CC#CCc1cccc(O)c1 [Compound 701241]	YES

---

# experiment-summary: Cytotoxicity CC50, HepG2, Alamar Blue
# test-context: human, pH 7, HepG2 CC50, 48 h
experimental-readout: CC50 at 48 h (µM)

compound	number
C=C1C(=O)OC2CC(C)C3C(OC)CC(=O)C3(C)C(OC(=O)C(C)CC)C12 (centres unmarked)	3.4
CC1OC(OC2C(OC(=O)C3CC[C@@H]4[C@H](C3)OC3(CC(OC(=O)/C=C/c5ccccc5)[C@@H](C)CO3)C43CO3)OC(CO)C(O)C2O)C(O)C(O)C1O (some centres unmarked)	2.5
CC(=O)OC1C(C)OC(OC2C(OC(=O)C3CC[C@@H]4[C@H](C3)OC3(CC(OC(=O)/C=C/c5ccccc5)[C@@H](C)CO3)C4(O)CO)OC(C)C(O)C2OC(C)=O)C(O)C1O (some centres unmarked)	15.2
C=C1C(=O)OC2CC(C)C3C=CC(=O)C3(C)C(OC(=O)C(C)CC)C12 (centres unmarked)	0.8
C=C1C(=O)OC2CC(C)C3C=CC(=O)C3(C)C(OC(=O)C(C)C)C12 (centres unmarked)	1.3
